target: PI3K alpha (Homo sapiens (Human)); experiment: Enzymatic PI3K alpha isoform inhibition (lipid kinase, Kinase-Glo luminescence); assay type: biochemical; conditions: enzymatic assay
MEASURE: IC50 (nM)
Your answer is read as nM, so omit the unit and give the number.

Challenge: So what IC50 did `COc1ncc(N2CCc3ncnc(O[C@H]4CCN(C(=O)c5cncn5C)C4)c3C2)cc1C` get with PI3K alpha (Homo sapiens (Human))?
Response given: 1800

Challenge: Try `COc1ncc(N2CCc3ncnc(O[C@H]4CCN(C(=O)C5CCOCC5)C4)c3C2)cc1C(F)(F)F` next.
Response given: 589

Challenge: Moving on to `COc1ncc(N2CCc3ncnc(O[C@H]4CCN(C(=O)c5cn(C)cn5)C4)c3C2)cc1C(F)(F)F`
Response given: 504

Challenge: Input `COc1ncc(N2CCc3ncnc(N[C@H]4CCN(C(=O)c5cocn5)C4)c3C2)cc1C`
Response given: 781

Challenge: Consider next the compound `COc1ncc(N2CCc3ncnc(O[C@H]4CCN(C(=O)c5oc(C)nc5C)C4)c3C2)cc1C` in the same way.
Response given: 668

###

Answer each item with its documented pIC50.
target: PI3K delta (Homo sapiens (Human), UniProt O00329); experiment: Enzymatic PI3K delta isoform inhibition (lipid kinase, Kinase-Glo luminescence); assay type: biochemical; conditions: enzymatic assay
Sequence (O00329 other isoform, or with tags, fused parts or gaps linker GGGGGG): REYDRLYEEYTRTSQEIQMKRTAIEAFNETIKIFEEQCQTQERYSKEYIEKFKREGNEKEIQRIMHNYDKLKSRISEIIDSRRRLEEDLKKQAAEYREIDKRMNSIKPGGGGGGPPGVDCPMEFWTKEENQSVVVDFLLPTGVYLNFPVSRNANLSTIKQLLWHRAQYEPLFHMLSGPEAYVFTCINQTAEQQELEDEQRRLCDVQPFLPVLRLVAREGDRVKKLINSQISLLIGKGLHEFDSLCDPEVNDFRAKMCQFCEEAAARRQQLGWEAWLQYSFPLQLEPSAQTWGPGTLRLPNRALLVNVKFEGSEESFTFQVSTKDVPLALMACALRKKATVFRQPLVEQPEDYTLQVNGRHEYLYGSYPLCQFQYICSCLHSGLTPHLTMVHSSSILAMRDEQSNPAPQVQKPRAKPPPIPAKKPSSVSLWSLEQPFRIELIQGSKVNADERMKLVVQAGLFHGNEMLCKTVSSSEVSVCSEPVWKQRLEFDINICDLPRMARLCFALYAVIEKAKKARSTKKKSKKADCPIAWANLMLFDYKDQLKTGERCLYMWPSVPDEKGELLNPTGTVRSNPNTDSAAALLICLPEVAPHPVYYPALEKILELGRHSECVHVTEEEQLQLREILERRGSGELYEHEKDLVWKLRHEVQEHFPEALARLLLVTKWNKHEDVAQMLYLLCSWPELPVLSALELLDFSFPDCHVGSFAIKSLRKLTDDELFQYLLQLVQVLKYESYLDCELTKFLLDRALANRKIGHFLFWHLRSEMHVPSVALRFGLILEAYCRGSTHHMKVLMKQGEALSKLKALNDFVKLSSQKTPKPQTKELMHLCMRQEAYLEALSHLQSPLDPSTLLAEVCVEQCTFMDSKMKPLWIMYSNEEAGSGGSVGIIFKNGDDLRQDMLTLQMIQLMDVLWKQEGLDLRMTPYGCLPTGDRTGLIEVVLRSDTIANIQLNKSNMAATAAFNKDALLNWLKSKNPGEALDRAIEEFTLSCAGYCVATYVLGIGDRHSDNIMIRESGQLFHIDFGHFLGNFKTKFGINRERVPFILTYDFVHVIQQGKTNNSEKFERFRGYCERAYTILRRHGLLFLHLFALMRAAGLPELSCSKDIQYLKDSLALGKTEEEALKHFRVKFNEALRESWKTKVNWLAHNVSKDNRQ
The scale used: pIC50 is minus the common logarithm of the concentration in molar units.

Challenge: Given `COc1ncc(N2CCc3ncnc(O[C@H]4CCN(C(=O)C5CCN(C(C)=O)CC5)C4)c3C2)cc1C` , state its recorded pIC50.
Response given: 7.77

Challenge: Also need COc1ncc(N2CCc3ncnc(O[C@H]4CCN(C(=O)C5CCC(=O)N5)C4)c3C2)cc1C(F)(F)F (stereo partly shown) , thanks.
Response given: 7.57

Challenge: // query: `COc1ncc(N2CCc3ncnc(O[C@H]4CCN(C(=O)C5CCOCC5)C4)c3C2)cc1F`
Response given: 7.89

Challenge: How about COc1ncc(N2CCc3ncnc(O[C@H]4CCN(C(=O)C5CCOC(C)(C)C5)C4)c3C2)cc1C#N (stereo partly shown) ?
Response given: 7.96

Challenge: Can you handle `COc1ncc(N2CCc3ncnc(O[C@H]4CCN(C(=O)N5CCC(O)CC5)C4)c3C2)cc1C(F)(F)F` next?
Response given: 7.92

Challenge: And for `COc1ncc(N2CCc3ncnc(O[C@H]4CCN(C(=O)c5ocnc5C)C4)c3C2)cc1C` ?
Response given: 7.48

Challenge: Another compound to check: `COc1ncc(N2CCc3ncnc(O[C@H]4CCN(C(=O)c5ccnn5C)C4)c3C2)cc1C(F)(F)F`
Response given: 7.89

###

molecular target: PI3K delta (Homo sapiens (Human), UniProt O00329); experiment: Enzymatic PI3K delta isoform inhibition (lipid kinase, Kinase-Glo luminescence); assay type: biochemical; conditions: enzymatic assay
MEASURE: IC50 (µM)
Return type: number; implicit unit µM.

Challenge: State the recorded IC50 for this entry: `COc1ncc(N2CCc3ncnc(N[C@H]4CCN(C(=O)C5CCOCC5)C4)c3C2)cc1C#N`
Response given: 0.003

Challenge: And what about the compound `COCC(=O)N1CC[C@H](Oc2ncnc3c2CN(c2cnc(OC)c(C#N)c2)CC3)C1` ?
Response given: 0.027

Challenge: # repeat for `CCC(=O)N1CC[C@H](Oc2ncnc3c2CN(c2cnc(OC)c(C(F)(F)F)c2)CC3)C1`
Response given: 0.051

Challenge: What do we get for `COc1ncc(N2CCc3ncnc(O[C@H]4CCN(C(=O)c5cncn5C)C4)c3C2)cc1C` ?
Response given: 0.013

Challenge: Continue with `COc1ncc(N2CCc3ncnc(O[C@H]4CCN(C(=O)c5cnccn5)C4)c3C2)cc1C(F)(F)F`
Response given: 0.046

Challenge: Next compound up: `COc1ncc(N2CCc3ncnc(O[C@H]4CCN(C(=O)c5ccon5)C4)c3C2)cc1C`
Response given: 0.018

Challenge: // same read-out, input: COc1cc(N2CCc3ncnc(O[C@H]4CCN(C(=O)C5CCOC(C)(C)C5)C4)c3C2)cnc1OC (some centres unmarked)
Response given: 0.009

Challenge: Also `COC(=O)N1CC[C@H](Oc2ncnc3c2CN(c2cnc(OC)c(C#N)c2)CC3)C1` ?
Response given: 0.038

###

biological target: PI3K delta (Homo sapiens (Human), UniProt O00329); experiment: Enzymatic PI3K delta isoform inhibition (lipid kinase, Kinase-Glo luminescence); format: biochemical
MEASURE: IC50 (nM)
Write it as a number; the unit nM goes unstated.

Challenge: Need IC50 of `COc1ncc(N2CCc3ncnc(O[C@H]4CCN(c5ncccn5)C4)c3C2)cc1C(F)(F)F` , thanks.
Response given: 14

###

molecular target: human phosphoinositide-3 kinase (PI3K) delta (Homo sapiens (Human)); test: PI3K-mediated Akt 1/2 (S473) phosphorylation in Rat-1 cells (AlphaScreen SureFire); conditions: Rat-1 cells overexpressing myristoylated human PI3K delta, p-Akt (Ser473); read-out: Cell PI3Kδ/ IC50 [umol l − 1]
Sequence (O00329 whole entry): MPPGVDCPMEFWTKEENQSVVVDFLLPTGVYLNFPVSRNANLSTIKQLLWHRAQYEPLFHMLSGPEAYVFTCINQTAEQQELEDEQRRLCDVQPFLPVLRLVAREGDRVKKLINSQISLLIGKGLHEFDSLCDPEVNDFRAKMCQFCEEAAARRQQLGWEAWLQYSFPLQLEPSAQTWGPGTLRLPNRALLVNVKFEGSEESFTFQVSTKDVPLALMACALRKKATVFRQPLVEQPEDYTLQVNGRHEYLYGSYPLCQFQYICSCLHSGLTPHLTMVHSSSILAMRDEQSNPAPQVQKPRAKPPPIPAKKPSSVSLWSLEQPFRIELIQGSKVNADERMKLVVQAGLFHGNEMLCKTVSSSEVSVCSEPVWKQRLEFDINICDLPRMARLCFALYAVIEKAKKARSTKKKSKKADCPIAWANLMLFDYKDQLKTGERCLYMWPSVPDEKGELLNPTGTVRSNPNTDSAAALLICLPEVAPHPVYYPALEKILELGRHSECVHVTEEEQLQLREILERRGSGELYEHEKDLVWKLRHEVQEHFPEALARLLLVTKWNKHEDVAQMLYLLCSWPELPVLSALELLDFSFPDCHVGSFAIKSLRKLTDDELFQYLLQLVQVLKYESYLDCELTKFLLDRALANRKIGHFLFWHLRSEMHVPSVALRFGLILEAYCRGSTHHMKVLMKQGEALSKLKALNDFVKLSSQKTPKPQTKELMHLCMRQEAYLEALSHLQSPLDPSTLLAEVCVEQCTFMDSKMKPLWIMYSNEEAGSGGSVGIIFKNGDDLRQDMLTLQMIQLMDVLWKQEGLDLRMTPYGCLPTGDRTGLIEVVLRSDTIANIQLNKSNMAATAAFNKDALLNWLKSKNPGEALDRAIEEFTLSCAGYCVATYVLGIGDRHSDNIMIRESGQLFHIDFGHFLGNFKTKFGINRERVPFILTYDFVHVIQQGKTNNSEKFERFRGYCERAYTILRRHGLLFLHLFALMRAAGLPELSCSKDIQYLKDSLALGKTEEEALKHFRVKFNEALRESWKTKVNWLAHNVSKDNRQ
Sequence (Q63787 whole entry partner): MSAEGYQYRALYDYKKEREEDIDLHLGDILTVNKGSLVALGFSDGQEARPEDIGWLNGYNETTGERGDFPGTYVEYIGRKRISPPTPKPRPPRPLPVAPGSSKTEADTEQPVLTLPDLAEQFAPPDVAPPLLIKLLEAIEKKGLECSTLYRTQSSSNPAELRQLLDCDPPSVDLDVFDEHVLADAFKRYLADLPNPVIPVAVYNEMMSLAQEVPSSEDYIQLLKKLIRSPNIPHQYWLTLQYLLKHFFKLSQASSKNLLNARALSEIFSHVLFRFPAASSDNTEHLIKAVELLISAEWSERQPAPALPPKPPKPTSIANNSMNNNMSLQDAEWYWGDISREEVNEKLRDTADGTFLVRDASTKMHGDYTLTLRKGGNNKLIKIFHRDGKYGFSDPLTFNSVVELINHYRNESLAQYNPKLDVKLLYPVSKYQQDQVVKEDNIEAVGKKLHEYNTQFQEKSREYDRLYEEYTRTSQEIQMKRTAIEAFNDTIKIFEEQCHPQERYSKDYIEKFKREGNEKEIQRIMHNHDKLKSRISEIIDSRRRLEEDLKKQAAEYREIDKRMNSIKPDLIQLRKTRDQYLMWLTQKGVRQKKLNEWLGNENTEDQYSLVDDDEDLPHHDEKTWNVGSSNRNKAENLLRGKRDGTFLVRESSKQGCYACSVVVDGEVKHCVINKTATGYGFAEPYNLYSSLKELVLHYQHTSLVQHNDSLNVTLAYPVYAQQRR
MEASURE: pIC50
For clarity, pIC50 is expressed as the negative log10 of concentration in mol/L.

Challenge: Quick check: pIC50 of COc1ncc(N2CCc3ncnc(N[C@H]4CCN(C(=O)C5CCOCC5)C4)c3C2)cc1Cl [Example 82] ?
Response given: 6.94

Challenge: Another molecule: COc1ncc(N2CCc3ncnc(O[C@H]4CCN(c5ccccn5)C4)c3C2)cc1C(F)(F)F [Example 65]
Response given: 6.72

Challenge: Okay, and COc1cc(N2CCc3ncnc(O[C@H]4CCN(C(=O)C5CCOCC5)C4)c3C2)cnc1OC [Example 5] ?
Response given: 6.34

Challenge: And what about the molecule COc1ncc(N2CCc3ncnc(O[C@H]4CCN(C(=O)C5CCOCC5)C4)c3C2)cc1C [Example 1] ?
Response given: 6.82

Challenge: Also check COc1ncc(N2CCc3ncnc(N[C@H]4CCN(C(=O)C5CCOC(C)(C)C5)C4)c3C2)cc1C(F)(F)F (some centres unmarked) [Example 71]
Response given: 7.46

###

target: PI3K delta (Homo sapiens (Human)); experiment: Enzymatic PI3K delta isoform inhibition (lipid kinase, Kinase-Glo luminescence); format: biochemical; settings: enzymatic assay
MEASURE: pIC50
Hey, just a heads up that pIC50 is the negative log base 10 of the concentration in molar.

Challenge: Would you kindly share the measured pIC50 for COc1ncc(N2CCc3ncnc(O[C@H]4CCN(C(=O)N5CCOCC5)C4)c3C2)cc1C(F)(F)F [Example 86] ?
Response given: 7.70

Challenge: Field entry: COc1cc(N2CCc3ncnc(O[C@H]4CCN(C(=O)c5coc(C)n5)C4)c3C2)cnc1OC [Example 23]
Response given: 8.00

Challenge: What do you get for COc1cc(N2CCc3ncnc(O[C@H]4CCN(C(=O)C5CCOCC5)C4)c3C2)cnc1OC [Example 5] ?
Response given: 7.70

###

target: PI3K alpha (Homo sapiens (Human), UniProt P42336); test: Enzymatic PI3K alpha isoform inhibition (lipid kinase, Kinase-Glo luminescence); assay type: biochemical; conditions: enzymatic assay
Sequence (P42336 other isoform, or with tags, fused parts or gaps): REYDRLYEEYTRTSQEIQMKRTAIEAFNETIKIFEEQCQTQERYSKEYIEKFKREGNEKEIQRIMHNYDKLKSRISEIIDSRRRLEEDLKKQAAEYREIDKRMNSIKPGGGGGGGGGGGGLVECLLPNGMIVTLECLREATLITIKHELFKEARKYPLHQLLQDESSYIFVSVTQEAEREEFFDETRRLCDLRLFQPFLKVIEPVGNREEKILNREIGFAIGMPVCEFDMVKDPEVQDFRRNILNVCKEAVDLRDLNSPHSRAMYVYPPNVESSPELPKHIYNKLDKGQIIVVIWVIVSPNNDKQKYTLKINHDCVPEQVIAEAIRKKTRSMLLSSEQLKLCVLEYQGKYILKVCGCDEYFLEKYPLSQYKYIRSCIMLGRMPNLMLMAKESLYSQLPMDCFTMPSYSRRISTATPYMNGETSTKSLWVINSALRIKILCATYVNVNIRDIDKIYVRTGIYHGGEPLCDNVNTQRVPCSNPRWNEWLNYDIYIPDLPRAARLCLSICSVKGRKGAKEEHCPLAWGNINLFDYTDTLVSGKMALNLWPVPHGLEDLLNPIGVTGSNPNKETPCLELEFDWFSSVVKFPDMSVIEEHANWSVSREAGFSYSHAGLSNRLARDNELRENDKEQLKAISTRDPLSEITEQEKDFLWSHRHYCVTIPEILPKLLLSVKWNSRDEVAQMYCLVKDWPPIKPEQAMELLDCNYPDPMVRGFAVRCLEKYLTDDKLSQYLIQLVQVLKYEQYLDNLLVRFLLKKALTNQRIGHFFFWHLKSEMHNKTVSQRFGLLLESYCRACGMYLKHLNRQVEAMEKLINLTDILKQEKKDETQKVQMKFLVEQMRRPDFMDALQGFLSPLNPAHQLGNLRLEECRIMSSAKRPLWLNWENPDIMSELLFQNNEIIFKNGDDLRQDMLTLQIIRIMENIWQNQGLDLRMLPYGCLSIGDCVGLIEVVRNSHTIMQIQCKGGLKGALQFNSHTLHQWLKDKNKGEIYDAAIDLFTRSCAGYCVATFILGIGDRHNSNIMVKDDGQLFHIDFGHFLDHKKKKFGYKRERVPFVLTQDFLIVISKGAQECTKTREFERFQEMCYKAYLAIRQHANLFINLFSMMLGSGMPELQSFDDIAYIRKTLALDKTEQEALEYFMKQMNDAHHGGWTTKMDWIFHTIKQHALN
Binary label based on IC50 with cut-off 1 µM: below gives Condition met, not below gives Condition not met.

Challenge: Could you please tell me whether IC50 recorded for `COc1ncc(N2CCc3ncnc(O[C@H]4CCN(C(=O)c5cscn5)C4)c3C2)cc1C(F)(F)F` is less than 1 µM?
Response given: Condition met

Challenge: Field entry: COc1ncc(N2CCc3ncnc(O[C@H]4CCN(C(=O)C5CNC(=O)C5)C4)c3C2)cc1C(F)(F)F (stereo partly drawn)
Response given: Condition met

Challenge: Same question, `COc1cc(N2CCc3ncnc(O[C@H]4CCN(C(=O)c5oc(C)nc5C)C4)c3C2)cnc1OC` this time
Response given: Condition met

Challenge: Note, next up: `COc1ncc(N2CCc3ncnc(O[C@H]4CCN(c5ncccn5)C4)c3C2)cc1C(F)(F)F`
Response given: Condition not met

Challenge: Also check `COc1ncc(N2CCc3ncnc(O[C@H]4CCN(C(=O)C5CCOCC5)C4)c3C2)cc1Cl`
Response given: Condition met

Challenge: Now this one: `COc1ncc(N2CCc3ncnc(O[C@H]4CCN(C(=O)N(C)CCO)C4)c3C2)cc1C(F)(F)F`
Response given: Condition not met

Challenge: Input `COc1ncc(N2CCc3ncnc(N[C@H]4CCN(C(=O)c5cn(C)cn5)C4)c3C2)cc1C`
Response given: Condition not met

Challenge: Also `COc1ncc(N2CCc3ncnc(O[C@H]4CCN(C(=O)c5oc(C)nc5C)C4)c3C2)cc1C#N` , if possible.
Response given: Condition not met

Challenge: Subsequent entry: `COc1ncc(N2CCc3ncnc(O[C@H]4CCN(C(=O)c5cncn5C)C4)c3C2)cc1C(F)(F)F`
Response given: Condition met

Challenge: How about this compound: `COc1ncc(N2CCc3ncnc(O[C@H]4CCN(C(=O)C5CCN(C(C)=O)CC5)C4)c3C2)cc1C`
Response given: Condition not met

Challenge: Check `COc1ncc(N2CCc3ncnc(O[C@H]4CCN(C(=O)C5CCN(C(C)=O)CC5)C4)c3C2)cc1C(F)(F)F` too.
Response given: Condition not met

Challenge: Thanks! And `COc1ncc(N2CCc3ncnc(O[C@H]4CCN(C(=O)c5cnoc5C)C4)c3C2)cc1C` ?
Response given: Condition not met

Challenge: How about `COc1ncc(N2CCc3ncnc(O[C@H]4CCN(C(=O)c5ocnc5C)C4)c3C2)cc1C` ?
Response given: Condition met

Challenge: Now the same for `COc1ncc(N2CCc3ncnc(O[C@H]4CCN(C(=O)C5CCOCC5)C4)c3C2)c(OC)n1`
Response given: Condition not met
